Consider the following variants; for each one, report its normalized RNA/DNA level with ligand (log10).
B1: library; a variant is named by its letters at N, in order (parent)
chain: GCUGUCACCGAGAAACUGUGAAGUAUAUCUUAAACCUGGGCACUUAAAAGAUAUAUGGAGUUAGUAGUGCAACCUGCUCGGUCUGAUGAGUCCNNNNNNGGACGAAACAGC

Variants of: B1
Assay: normalized RNA/DNA level with ligand (relative to sTRSVctl = 100) (log10 (% of sTRSVctl)); HEK293T; ligand: cyclic di-GMP (c-di-GMP-II aptamer); ligand concentration (+) RNA-Seq: 1 mM; higher = less ribozyme self-cleavage, higher mRNA level
Details: reporter: mCherry (pCS4076), ligand present: yes
Answers are plain numbers.

Examples with their reported normalized RNA/DNA level with ligand (log10) follow.
mutation_notation=UUCGCC endpoint_value=1.83
mutation_notation=AAUGCC endpoint_value=1.83
mutation_notation=CUCAGG endpoint_value=1.87
mutation_notation=GCGGGC endpoint_value=1.69
mutation_notation=GUGCAC endpoint_value=1.83

Could you tell me normalized RNA/DNA level with ligand (log10) for each of these variants? They are listed below.
1. CACCUU
2. UCACGA
3. UCUUAC
4. UCAUAG
5. AUGAAC

1: 1.67; 2: 1.81; 3: 1.86; 4: 1.77; 5: 1.79
